The following compounds are listed with their measured normalized growth values.
- test_protocol: chemical genetic growth profiling, strain panel (AID 1159580);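 further: tested at 20 µM; growth read once vehicle control cultures reached saturation at 30 °C; 1 = growth at the plate median or of vehicle wells; lower values mean less growth of the strain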
- measurement_conditions: S. cerevisiae deletion strains, growth OD, locus YPR163C, strain tif3, hits give low values
Screen size: about 5,500 compounds; about 2,000 (36%) were called active. About 18% were inconclusive and are not listed. This is one part of the list.
value_kind: normalized growth

• C[C@]12CCC(=O)C=C1CCC1C2C(=O)C[C@@]2(C)C1CC[C@]2(O)C(=O)CO (stereo partly specified) = 0.996
• CCCCCCCCCCCCCCCCCCOCC(O)CO (stereo unspecified) = 1.02
• COc1cc2c(cc1OC)-c1c(oc3c4c(ccc3c1=O)OC(C(C)C)C4)CO2 (stereo unspecified) = 0.988
• COc1ccc([C@H]2COc3c(ccc(O)c3OC)C2)c(OC)c1O = 0.981
• O=C(O)c1cc([N+](=O)[O-])ccc1NCCCc1ccccc1 = 0.925
• C=C(C)[C@H]1Cc2c(ccc3c2O[C@@H]2COc4cc(OC)c(OC)cc4[C@@H]2C3=O)O1 = 0.933
• CC1(C)C=Cc2cc3ccc(=O)oc3cc2O1 = 0.983
• COc1cc(O)cc(OC)c1OC = 1
• CCOC([O-])=Nc1c[n+](N2CCOCC2)no1 = 0.984
• CCC1(CC)C(=O)C=CNC1=O = 1.01
• CC(=O)OCC(=O)[C@@]1(O)CCC2C3CCC4=CC(=O)CC[C@]4(C)C3[C@@H](O)C[C@@]21C (stereo partly specified) = 1
